B1: tRNA (parent)
chain: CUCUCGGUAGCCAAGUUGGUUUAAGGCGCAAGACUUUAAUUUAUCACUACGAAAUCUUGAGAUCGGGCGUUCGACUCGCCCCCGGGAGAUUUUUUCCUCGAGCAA

Variants of: B1
Method Summary: nonsense suppression (GFP-seq) (ratio to wild type); higher = more function; SUP4oc tRNA, yeast GFP reporter sort-seq
This sample holds only a part of the variants without activity.
Consider the following variants and their measured nonsense suppression readings.

- Variant Name: "U17A G28U A31C C80G G84C G86A"
  Sign Qualifier: "≤"
  nonsense suppression: 0.026
- Variant Name: "C1G G25A U35C"
  Sign Qualifier: "≤"
  nonsense suppression: 0.026
- Variant Name: "A24G U70G"
  Sign Qualifier: "≤"
  nonsense suppression: 0.026
- Variant Name: "G15U U71A C82G"
  Sign Qualifier: "≤"
  nonsense suppression: 0.026
- Variant Name: "C11U G18C U20G U76G"
  Sign Qualifier: "≤"
  nonsense suppression: 0.026
- Variant Name: "G26U C34U"
  Sign Qualifier: "≤"
  nonsense suppression: 0.026
- Variant Name: "A13U G61U"
  Sign Qualifier: "="
  nonsense suppression: 0.447
- Variant Name: "A24C G28A"
  Sign Qualifier: "="
  nonsense suppression: 0.952
- Variant Name: "U4A C12U"
  Sign Qualifier: "≤"
  nonsense suppression: 0.026
- Variant Name: "C5G C34U A74U C77A"
  Sign Qualifier: "≤"
  nonsense suppression: 0.026
- Variant Name: "A30U U58A G78U"
  Sign Qualifier: "="
  nonsense suppression: 0.776
- Variant Name: "G7A G28U C34A"
  Sign Qualifier: "≤"
  nonsense suppression: 0.026
- Variant Name: "U20G C56U"
  Sign Qualifier: "="
  nonsense suppression: 0.148
- Variant Name: "U17G U21G G61U"
  Sign Qualifier: "="
  nonsense suppression: 0.0263
- Variant Name: "U4C G86A"
  Sign Qualifier: "="
  nonsense suppression: 1.09
- Variant Name: "G25C A30U"
  Sign Qualifier: "="
  nonsense suppression: 0.0299
- Variant Name: "G25C C68U"
  Sign Qualifier: "="
  nonsense suppression: 0.031
- Variant Name: "C12U U17C"
  Sign Qualifier: "="
  nonsense suppression: 0.212
- Variant Name: "A23U A62C"
  Sign Qualifier: "≤"
  nonsense suppression: 0.026
- Variant Name: "A23G A31G"
  Sign Qualifier: "="
  nonsense suppression: 0.0446
- Variant Name: "G25A U57C"
  Sign Qualifier: "≤"
  nonsense suppression: 0.026
- Variant Name: "U16G U70A C82A"
  Sign Qualifier: "≤"
  nonsense suppression: 0.026
- Variant Name: "G10A U70C G78C A89C"
  Sign Qualifier: "≤"
  nonsense suppression: 0.026
- Variant Name: "A31U C81U"
  Sign Qualifier: "="
  nonsense suppression: 0.0322
- Variant Name: "U21G C75G"
  Sign Qualifier: "="
  nonsense suppression: 1.05
- Variant Name: "C3G U4C"
  Sign Qualifier: "="
  nonsense suppression: 0.399
- Variant Name: "A24C A60U"
  Sign Qualifier: "="
  nonsense suppression: 1.07
- Variant Name: "U63C C75U"
  Sign Qualifier: "="
  nonsense suppression: 1.1
- Variant Name: "U17A G25C"
  Sign Qualifier: "="
  nonsense suppression: 0.068
- Variant Name: "U20C A24C"
  Sign Qualifier: "="
  nonsense suppression: 0.249
- Variant Name: "U4A G67C C68U"
  Sign Qualifier: "≤"
  nonsense suppression: 0.026
- Variant Name: "U57A U76A"
  Sign Qualifier: "≤"
  nonsense suppression: 0.026
- Variant Name: "U22G G78U"
  Sign Qualifier: "="
  nonsense suppression: 0.112
- Variant Name: "A9U G85C"
  Sign Qualifier: "="
  nonsense suppression: 0.0283
- Variant Name: "A33G C79U"
  Sign Qualifier: "="
  nonsense suppression: 0.0403
- Variant Name: "G18A G25U G67C"
  Sign Qualifier: "≤"
  nonsense suppression: 0.026
- Variant Name: "U21A G65C U71A G78U"
  Sign Qualifier: "≤"
  nonsense suppression: 0.026
- Variant Name: "G69U U71G"
  Sign Qualifier: "≤"
  nonsense suppression: 0.026
- Variant Name: "A24C G78A"
  Sign Qualifier: "="
  nonsense suppression: 0.112
- Variant Name: "G86U A87U"
  Sign Qualifier: "≤"
  nonsense suppression: 0.026
- Variant Name: "A31U U55C"
  Sign Qualifier: "="
  nonsense suppression: 0.0547
- Variant Name: "G78A C82A"
  Sign Qualifier: "="
  nonsense suppression: 0.0338
- Variant Name: "U2C A30U A31G A62G G67A G86C"
  Sign Qualifier: "≤"
  nonsense suppression: 0.026
- Variant Name: "G10C G73C A87U"
  Sign Qualifier: "≤"
  nonsense suppression: 0.026
- Variant Name: "A9C A23G"
  Sign Qualifier: "="
  nonsense suppression: 0.0661
- Variant Name: "A23U G25U G69C"
  Sign Qualifier: "≤"
  nonsense suppression: 0.026
- Variant Name: "C3U U58C"
  Sign Qualifier: "="
  nonsense suppression: 0.202
- Variant Name: "U20G"
  Sign Qualifier: "="
  nonsense suppression: 0.989
- Variant Name: "A24U U58C G85A"
  Sign Qualifier: "≤"
  nonsense suppression: 0.026
- Variant Name: "U4G G6U U21C U55C C79G"
  Sign Qualifier: "≤"
  nonsense suppression: 0.026
- Variant Name: "A24C U71C"
  Sign Qualifier: "="
  nonsense suppression: 0.0704
- Variant Name: "U22C G78C"
  Sign Qualifier: "="
  nonsense suppression: 0.195
- Variant Name: "A24C A60C"
  Sign Qualifier: "="
  nonsense suppression: 0.0269
- Variant Name: "U57A C75U"
  Sign Qualifier: "="
  nonsense suppression: 0.03
- Variant Name: "C27U G59U G61U G66U"
  Sign Qualifier: "≤"
  nonsense suppression: 0.026
- Variant Name: "G26U C64G"
  Sign Qualifier: "≤"
  nonsense suppression: 0.026
- Variant Name: "C5U U63A"
  Sign Qualifier: "="
  nonsense suppression: 0.0305
- Variant Name: "U22C U70C G73A"
  Sign Qualifier: "≤"
  nonsense suppression: 0.026
- Variant Name: "G59A G61A U71G G78U"
  Sign Qualifier: "≤"
  nonsense suppression: 0.026
- Variant Name: "U20G U55C A74G"
  Sign Qualifier: "≤"
  nonsense suppression: 0.026
- Variant Name: "U16G G28U U35G G59A G85A"
  Sign Qualifier: "≤"
  nonsense suppression: 0.026
- Variant Name: "A9G C82U"
  Sign Qualifier: "="
  nonsense suppression: 0.531
- Variant Name: "G10A G59A"
  Sign Qualifier: "≤"
  nonsense suppression: 0.026
- Variant Name: "A33G C75A"
  Sign Qualifier: "="
  nonsense suppression: 0.235
- Variant Name: "C11A U17C"
  Sign Qualifier: "≤"
  nonsense suppression: 0.026
- Variant Name: "U2G U8A C12A A30G G59U G88C"
  Sign Qualifier: "≤"
  nonsense suppression: 0.026
- Variant Name: "G7A U17C A24G G32U U71C A87U"
  Sign Qualifier: "≤"
  nonsense suppression: 0.026
- Variant Name: "U21G A60U"
  Sign Qualifier: "="
  nonsense suppression: 0.96
- Variant Name: "C11G G26C A30C"
  Sign Qualifier: "≤"
  nonsense suppression: 0.026
- Variant Name: "U55C U57C"
  Sign Qualifier: "="
  nonsense suppression: 0.026
- Variant Name: "U20A"
  Sign Qualifier: "="
  nonsense suppression: 1.18
- Variant Name: "A14C A31G A74U C80G"
  Sign Qualifier: "≤"
  nonsense suppression: 0.026
- Variant Name: "G61A C80U"
  Sign Qualifier: "="
  nonsense suppression: 0.232
- Variant Name: "A24C U71A G78C C80A A87G"
  Sign Qualifier: "≤"
  nonsense suppression: 0.026
- Variant Name: "C3G A9G G59U"
  Sign Qualifier: "≤"
  nonsense suppression: 0.026
- Variant Name: "C3G G28A U55C G86U G88U"
  Sign Qualifier: "≤"
  nonsense suppression: 0.026
- Variant Name: "A54C A74G"
  Sign Qualifier: "="
  nonsense suppression: 0.0575
- Variant Name: "A30G U63C"
  Sign Qualifier: "="
  nonsense suppression: 0.205
- Variant Name: "A14C A31U A33U"
  Sign Qualifier: "≤"
  nonsense suppression: 0.026
- Variant Name: "G18A A24C"
  Sign Qualifier: "="
  nonsense suppression: 0.0483
- Variant Name: "C1U U2G U20G C29A"
  Sign Qualifier: "≤"
  nonsense suppression: 0.026
- Variant Name: "C1G A9C G18U U71G"
  Sign Qualifier: "≤"
  nonsense suppression: 0.026
- Variant Name: "A24U G61C"
  Sign Qualifier: "≤"
  nonsense suppression: 0.026
- Variant Name: "C34A U55A C80A"
  Sign Qualifier: "≤"
  nonsense suppression: 0.026
- Variant Name: "C5G U55C U70C"
  Sign Qualifier: "≤"
  nonsense suppression: 0.026
- Variant Name: "G65C U76A"
  Sign Qualifier: "≤"
  nonsense suppression: 0.026
- Variant Name: "C68U"
  Sign Qualifier: "="
  nonsense suppression: 1.05
- Variant Name: "A9U A60U"
  Sign Qualifier: "="
  nonsense suppression: 0.0653
- Variant Name: "U22C A24C"
  Sign Qualifier: "="
  nonsense suppression: 1.01
- Variant Name: "U8C A9U C34G C68U"
  Sign Qualifier: "≤"
  nonsense suppression: 0.026
- Variant Name: "U4G A89U"
  Sign Qualifier: "="
  nonsense suppression: 0.0348
